# experimentalSystem: rat α3β4 nAChR (Rattus norvegicus, UniProt P04757+P12392)
# assay: cell-based
Peptide text beside a SMILES is read from it.

{"columns": ["compound", "α3β4 IC50 ratio"],
 "data": [
  ["CC[C@H](C)[C@@H]1NC(=O)[C@@H]2CCCN2C(=O)[C@H](CO)NC(=O)[C@H](CCSC)NC(=O)[C@H](C)NC(=O)[C@H](Cc2ccccc2)NC(=O)[C@@H]2CSSC[C@H](NC(=O)CN)C(=O)N[C@@H](CSSC[C@@H](C(N)=O)NC1=O)C(=O)N[C@@H](CO)C(=O)N[C@@H](Cc1c[nH]cn1)C(=O)N1CCC[C@H]1C(=O)N[C@@H](C(C)C)C(=O)N2 [TxID[S9F]] (HELM PEPTIDE1{G.C.C.S.H.P.V.C.F.A.M.S.P.I.C.[am]}$PEPTIDE1,PEPTIDE1,2:R3-8:R3|PEPTIDE1,PEPTIDE1,3:R3-15:R3$$$V2.0)", 3.8],
  ["CSCC[C@@H]1NC(=O)[C@H](C)NC(=O)[C@H](CO)NC(=O)[C@@H]2CSSC[C@H](NC(=O)CN)C(=O)N[C@@H](CSSC[C@@H](C(N)=O)NC(=O)[C@H](Cc3ccc(O)cc3)NC(=O)[C@@H]3CCCN3C(=O)[C@H](CO)NC1=O)C(=O)N[C@@H](CO)C(=O)N[C@@H](Cc1c[nH]cn1)C(=O)N1CCC[C@H]1C(=O)N[C@@H](C(C)C)C(=O)N2 [TxID[I14Y]] (HELM PEPTIDE1{G.C.C.S.H.P.V.C.S.A.M.S.P.Y.C.[am]}$PEPTIDE1,PEPTIDE1,2:R3-8:R3|PEPTIDE1,PEPTIDE1,3:R3-15:R3$$$V2.0)", 2.7]
]}

====

List of IC50 values.
# experimentalSystem: rat α6/α3β4 nAChR (Rattus norvegicus, UniProt P04757+P12392+P43143)
# Sequence (P04757 whole entry, looked up): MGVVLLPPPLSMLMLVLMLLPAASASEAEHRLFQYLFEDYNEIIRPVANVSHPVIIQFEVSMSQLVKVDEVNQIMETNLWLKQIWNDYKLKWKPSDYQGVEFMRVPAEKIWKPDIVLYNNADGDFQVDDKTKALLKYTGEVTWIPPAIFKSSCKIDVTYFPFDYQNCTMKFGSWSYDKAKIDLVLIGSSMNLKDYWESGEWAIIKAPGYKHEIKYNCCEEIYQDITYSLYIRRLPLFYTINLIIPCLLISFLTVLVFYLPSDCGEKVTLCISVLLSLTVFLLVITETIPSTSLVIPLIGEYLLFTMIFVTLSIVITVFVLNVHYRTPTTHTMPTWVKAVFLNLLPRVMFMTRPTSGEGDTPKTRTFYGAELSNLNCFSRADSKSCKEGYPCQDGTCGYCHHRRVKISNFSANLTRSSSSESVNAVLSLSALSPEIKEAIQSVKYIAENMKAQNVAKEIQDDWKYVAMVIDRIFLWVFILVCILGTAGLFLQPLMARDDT
# Sequence (P12392 whole entry, looked up): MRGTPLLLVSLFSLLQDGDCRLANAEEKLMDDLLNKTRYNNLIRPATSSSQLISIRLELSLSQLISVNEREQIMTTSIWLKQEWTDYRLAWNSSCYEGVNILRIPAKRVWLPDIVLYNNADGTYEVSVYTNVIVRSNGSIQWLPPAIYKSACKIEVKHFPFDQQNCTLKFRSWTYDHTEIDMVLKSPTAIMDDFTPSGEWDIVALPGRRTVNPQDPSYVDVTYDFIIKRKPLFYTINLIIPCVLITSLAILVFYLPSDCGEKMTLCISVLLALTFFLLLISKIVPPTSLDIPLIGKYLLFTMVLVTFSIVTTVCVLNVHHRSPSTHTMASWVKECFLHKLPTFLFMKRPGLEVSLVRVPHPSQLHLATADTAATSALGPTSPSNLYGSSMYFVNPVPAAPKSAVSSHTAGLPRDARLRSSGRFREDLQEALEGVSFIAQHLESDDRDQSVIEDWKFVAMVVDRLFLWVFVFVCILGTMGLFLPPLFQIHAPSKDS
# Sequence (P43143 whole entry, looked up): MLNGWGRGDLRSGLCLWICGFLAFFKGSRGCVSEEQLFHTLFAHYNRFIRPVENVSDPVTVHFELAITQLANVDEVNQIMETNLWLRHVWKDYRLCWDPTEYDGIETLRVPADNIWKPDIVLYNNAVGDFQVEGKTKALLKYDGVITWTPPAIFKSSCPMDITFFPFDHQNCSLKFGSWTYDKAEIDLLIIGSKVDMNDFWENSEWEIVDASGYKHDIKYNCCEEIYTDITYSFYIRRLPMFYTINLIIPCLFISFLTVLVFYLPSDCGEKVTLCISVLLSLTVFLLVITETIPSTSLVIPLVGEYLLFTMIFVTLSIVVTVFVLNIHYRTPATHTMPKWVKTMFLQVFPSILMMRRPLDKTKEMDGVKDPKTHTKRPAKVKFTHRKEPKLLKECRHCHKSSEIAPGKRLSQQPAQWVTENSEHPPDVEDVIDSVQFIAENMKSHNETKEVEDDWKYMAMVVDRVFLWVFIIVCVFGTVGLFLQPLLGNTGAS
# assay: cell-based
# recordedConditions: α6/α3β4 IC50 (half-blocking dose)
Peptide text beside a SMILES is read from it.
endpointName: IC50 (nM)

{"columns": ["compound", "endpointName", "quantitativeResult"],
 "data": [
  ["CSCC[C@@H]1NC(=O)[C@H](C)NC(=O)[C@H](CO)NC(=O)[C@@H]2CSSC[C@H](NC(=O)CN)C(=O)N[C@@H](CSSC[C@@H](C(N)=O)NC(=O)[C@H](CC(=O)O)NC(=O)[C@@H]3CCCN3C(=O)[C@H](CO)NC1=O)C(=O)N[C@@H](CO)C(=O)N[C@@H](Cc1c[nH]cn1)C(=O)N1CCC[C@H]1C(=O)N[C@@H](C(C)C)C(=O)N2 [TxID[I14D]] (HELM PEPTIDE1{G.C.C.S.H.P.V.C.S.A.M.S.P.D.C.[am]}$PEPTIDE1,PEPTIDE1,2:R3-8:R3|PEPTIDE1,PEPTIDE1,3:R3-15:R3$$$V2.0)", "IC50", 40.8],
  ["CSCC[C@@H]1NC(=O)[C@H](C)NC(=O)[C@H](CO)NC(=O)[C@@H]2CSSC[C@H](NC(=O)CN)C(=O)N[C@@H](CSSC[C@@H](C(N)=O)NC(=O)[C@H](CCCNC(=N)N)NC(=O)[C@@H]3CCCN3C(=O)[C@H](CO)NC1=O)C(=O)N[C@@H](CO)C(=O)N[C@@H](Cc1c[nH]cn1)C(=O)N1CCC[C@H]1C(=O)N[C@@H](C(C)C)C(=O)N2 [TxID[I14R]] (HELM PEPTIDE1{G.C.C.S.H.P.V.C.S.A.M.S.P.R.C.[am]}$PEPTIDE1,PEPTIDE1,2:R3-8:R3|PEPTIDE1,PEPTIDE1,3:R3-15:R3$$$V2.0)", "IC50", 67.4]
]}

====

# experimentalSystem: rat α3β4 nAChR (Rattus norvegicus, UniProt P04757+P12392)
# assay: cell-based
Peptide text beside a SMILES is read from it.
endpointName: binding (blocking) activity to α3β4 nAChR compared with wild type TxID

{"columns": ["compound", "experimentalSystem", "result"],
 "data": [
  ["CC[C@H](C)[C@@H]1NC(=O)[C@@H]2CCCN2C(=O)[C@H](CO)NC(=O)[C@H](CCSC)NC(=O)[C@H](C)NC(=O)[C@H](CCC(=O)O)NC(=O)[C@@H]2CSSC[C@H](NC(=O)CN)C(=O)N[C@@H](CSSC[C@@H](C(N)=O)NC1=O)C(=O)N[C@@H](CO)C(=O)N[C@@H](Cc1c[nH]cn1)C(=O)N1CCC[C@H]1C(=O)N[C@@H](C(C)C)C(=O)N2 [TxID[S9E]] (HELM PEPTIDE1{G.C.C.S.H.P.V.C.E.A.M.S.P.I.C.[am]}$PEPTIDE1,PEPTIDE1,2:R3-8:R3|PEPTIDE1,PEPTIDE1,3:R3-15:R3$$$V2.0)", "rat α3β4 nAChR (Rattus norvegicus, UniProt P04757+P12392)", "weak"]
]}

====

List of IC50 values.
# experimentalSystem: rat α3β4 nAChR (Rattus norvegicus, UniProt P04757+P12392)
# assay: cell-based
# recordedConditions: α3β4 IC50 (half-blocking dose)
Peptide text beside a SMILES is read from it.

{"columns": ["molecule", "IC50"],
 "data": [
  ["CC[C@H](C)[C@@H]1NC(=O)[C@@H]2CCCN2C(=O)[C@H](CO)NC(=O)[C@H](CCSC)NC(=O)[C@H](C)NC(=O)[C@H](CO)NC(=O)[C@@H]2CSSC[C@H](NC(=O)CN)C(=O)N[C@@H](CSSC[C@@H](C(N)=O)NC1=O)C(=O)N[C@@H](CO)C(=O)N[C@@H](Cc1c[nH]cn1)C(=O)N1CCC[C@H]1C(=O)N[C@@H](C)C(=O)N2 [TxID[V7A]] (HELM PEPTIDE1{G.C.C.S.H.P.A.C.S.A.M.S.P.I.C.[am]}$PEPTIDE1,PEPTIDE1,2:R3-8:R3|PEPTIDE1,PEPTIDE1,3:R3-15:R3$$$V2.0)", "> 10 µM"],
  ["CC[C@H](C)[C@@H]1NC(=O)[C@@H]2CCCN2C(=O)[C@H](CO)NC(=O)[C@H](Cc2c[nH]cn2)NC(=O)[C@H](C)NC(=O)[C@H](CO)NC(=O)[C@@H]2CSSC[C@H](NC(=O)CN)C(=O)N[C@@H](CSSC[C@@H](C(N)=O)NC1=O)C(=O)N[C@@H](CO)C(=O)N[C@@H](Cc1c[nH]cn1)C(=O)N1CCC[C@H]1C(=O)N[C@@H](C(C)C)C(=O)N2 [TxID[M11H]] (HELM PEPTIDE1{G.C.C.S.H.P.V.C.S.A.H.S.P.I.C.[am]}$PEPTIDE1,PEPTIDE1,2:R3-8:R3|PEPTIDE1,PEPTIDE1,3:R3-15:R3$$$V2.0)", "> 10 µM"]
]}

====

# experimentalSystem: rat α3β4 nAChR (Rattus norvegicus, UniProt P04757+P12392)
# assay: cell-based
# recordedConditions: α3β4 IC50 (half-blocking dose)
pIC50: −log10 of the molar value. Peptide text beside a SMILES is read from it.
List of pIC50 values.

{"columns": ["compound", "censorSymbol", "pIC50"],
 "data": [
  ["CC[C@H](C)[C@@H]1NC(=O)[C@@H]2CCCN2C(=O)[C@H](CO)NC(=O)[C@H](CCSC)NC(=O)[C@H](C)NC(=O)[C@H](CO)NC(=O)[C@H](CCCNC(=N)N)NC(=O)[C@@H]2CSSC[C@H](NC(=O)CN)C(=O)N[C@@H](CSSC[C@@H](C(N)=O)NC1=O)C(=O)N[C@@H](CO)C(=O)N[C@@H](Cc1c[nH]cn1)C(=O)N1CCC[C@H]1C(=O)N[C@@H](C(C)C)C(=O)N2 [TxID[9R]] (HELM PEPTIDE1{G.C.C.S.H.P.V.C.R.S.A.M.S.P.I.C.[am]}$PEPTIDE1,PEPTIDE1,2:R3-8:R3|PEPTIDE1,PEPTIDE1,3:R3-16:R3$$$V2.0)", "<", 5.00],
  ["CC[C@H](C)[C@@H]1NC(=O)[C@H](CC(=O)O)NC(=O)[C@@H]2CCCN2C(=O)[C@H](CO)NC(=O)[C@H](CCSC)NC(=O)[C@H](C)NC(=O)[C@H](CO)NC(=O)[C@@H]2CSSC[C@H](NC(=O)CN)C(=O)N[C@@H](CSSC[C@@H](C(N)=O)NC1=O)C(=O)N[C@@H](CO)C(=O)N[C@@H](Cc1c[nH]cn1)C(=O)N1CCC[C@H]1C(=O)N[C@@H](C(C)C)C(=O)N2 [TxID[14D]] (HELM PEPTIDE1{G.C.C.S.H.P.V.C.S.A.M.S.P.D.I.C.[am]}$PEPTIDE1,PEPTIDE1,2:R3-8:R3|PEPTIDE1,PEPTIDE1,3:R3-16:R3$$$V2.0)", "=", 7.30]
]}
